# System: 323965-272-R-J2-PDC complex spheroid viability
# experimental_protocol: Anticancer human tumor 323965-272-R-J2-PDC patient-derived pancreatic carcinoma cell line growth inhibition [CLK]; active = viability on the fitted dose curve at most 10% of control; inactive = the rest
# condition_description: second compound 3.16 µM; first compound 10 µM
Possible outcomes: yes for active, no for inactive

{"compound": "C=C(F)C(=O)N1CCN(c2nc(OCC3CCCN3C)nc3c2CCN(c2cccc4cccc(Cl)c24)C3)CC1CC#N (stereo not given) + CNC(=O)c1ccc(Nc2nc(OC3CCCC3)c3c(-c4ccc5nc(C)oc5c4)c[nH]c3n2)c(OC)c1", "answer_label": "no"}
{"compound": "CC1(C)CCC(CN2CCN(c3ccc(C(=O)NS(=O)(=O)c4ccc(NCC5CCOCC5)c([N+](=O)[O-])c4)c(Oc4cnc5[nH]ccc5c4)c3)CC2)=C(c2ccc(Cl)cc2)C1 + CN1CCN(c2cc(C(=O)Nc3cc4cc(-c5cnn(C)c5)ccc4cn3)ccn2)CC1", "answer_label": "yes"}
{"compound": "CC(=O)O[C@H]1C(=O)[C@@]2(C)[C@H]([C@H](OC(=O)c3ccccc3)[C@]3(O)C[C@H](OC(=O)[C@H](O)[C@@H](NC(=O)c4ccccc4)c4ccccc4)C(C)=C1C3(C)C)[C@]1(OC(C)=O)CO[C@@H]1C[C@@H]2O + CNC(=O)c1ccc(Nc2nc(OC3CCCC3)c3c(-c4ccc5nc(C)oc5c4)c[nH]c3n2)c(OC)c1", "answer_label": "no"}
{"compound": "CCCS(=O)(=O)Nc1ccc(F)c(C(=O)c2c[nH]c3ncc(-c4ccc(Cl)cc4)cc23)c1F + CN1CCN(c2cc(C(=O)Nc3cc4cc(-c5cnn(C)c5)ccc4cn3)ccn2)CC1", "answer_label": "yes"}
{"compound": "COc1cccc2c1C(=O)c1c(O)c3c(c(O)c1C2=O)CC(O)(C(=O)CO)CC3OC1CC(N)C(O)C(C)O1 (stereo not given) + CNC(=O)c1ccc(Nc2nc(OC3CCCC3)c3c(-c4ccc5nc(C)oc5c4)c[nH]c3n2)c(OC)c1", "answer_label": "yes"}
{"compound": "CC(CO)NC(=O)c1cc(-c2ccc(Cl)cc2)nn(-c2cnn(C)c2)c1=O (stereo not given) + CNC(=O)c1ccc(Nc2nc(OC3CCCC3)c3c(-c4ccc5nc(C)oc5c4)c[nH]c3n2)c(OC)c1", "answer_label": "no"}
{"compound": "CC1(C)CCC(CN2CCN(c3ccc(C(=O)NS(=O)(=O)c4ccc(NCC5CCOCC5)c([N+](=O)[O-])c4)c(Oc4cnc5[nH]ccc5c4)c3)CC2)=C(c2ccc(Cl)cc2)C1 + CNC(=O)c1ccc(Nc2nc(OC3CCCC3)c3c(-c4ccc5nc(C)oc5c4)c[nH]c3n2)c(OC)c1", "answer_label": "no"}
{"compound": "Nc1ccn(C2OC(CO)C(O)C2(F)F)c(=O)n1 (stereo not given) + CN1CCN(c2cc(C(=O)Nc3cc4cc(-c5cnn(C)c5)ccc4cn3)ccn2)CC1", "answer_label": "yes"}
{"compound": "CC(Nc1ccc2c(c1)OCCn1cc(N3C(=O)OCC3C(F)F)nc1-2)C(N)=O (stereo not given) + CN1CCN(c2cc(C(=O)Nc3cc4cc(-c5cnn(C)c5)ccc4cn3)ccn2)CC1", "answer_label": "yes"}
{"compound": "CC1COCCN1c1cc(C2(S(C)(=N)=O)CC2)nc(-c2ccnc3[nH]ccc23)n1 (stereo not given) + CNC(=O)c1ccc(Nc2nc(OC3CCCC3)c3c(-c4ccc5nc(C)oc5c4)c[nH]c3n2)c(OC)c1", "answer_label": "no"}
{"compound": "C#Cc1c(F)ccc2cc(O)cc(-c3ncc4c(N5CC6CCC(C5)N6)nc(OCC56CCCN5CC(F)C6)nc4c3F)c12 (stereo not given) + CNC(=O)c1ccc(Nc2nc(OC3CCCC3)c3c(-c4ccc5nc(C)oc5c4)c[nH]c3n2)c(OC)c1", "answer_label": "no"}
{"compound": "Nc1ccccc1NC(=O)c1ccc(CNC(=O)OCc2cccnc2)cc1 + CN1CCN(c2cc(C(=O)Nc3cc4cc(-c5cnn(C)c5)ccc4cn3)ccn2)CC1", "answer_label": "yes"}
{"compound": "O=c1[nH]cc(F)c(=O)[nH]1 + CN1CCN(c2cc(C(=O)Nc3cc4cc(-c5cnn(C)c5)ccc4cn3)ccn2)CC1", "answer_label": "yes"}
{"compound": "COc1cccc2c1C(=O)c1c(O)c3c(c(O)c1C2=O)CC(O)(C(=O)CO)CC3OC1CC(N)C(O)C(C)O1 (stereo not given) + CN1CCN(c2cc(C(=O)Nc3cc4cc(-c5cnn(C)c5)ccc4cn3)ccn2)CC1", "answer_label": "yes"}
{"compound": "O=C(c1cc(Cc2n[nH]c(=O)c3ccccc23)ccc1F)N1CCN(C(=O)C2CC2)CC1 + CN1CCN(c2cc(C(=O)Nc3cc4cc(-c5cnn(C)c5)ccc4cn3)ccn2)CC1", "answer_label": "yes"}
{"compound": "CC1COCCN1c1cc(C2(S(C)(=N)=O)CC2)nc(-c2ccnc3[nH]ccc23)n1 (stereo not given) + CN1CCN(c2cc(C(=O)Nc3cc4cc(-c5cnn(C)c5)ccc4cn3)ccn2)CC1", "answer_label": "yes"}
{"compound": "Nc1ccccc1NC(=O)c1ccc(CNC(=O)OCc2cccnc2)cc1 + CNC(=O)c1ccc(Nc2nc(OC3CCCC3)c3c(-c4ccc5nc(C)oc5c4)c[nH]c3n2)c(OC)c1", "answer_label": "no"}
{"compound": "Nc1ccn(C2OC(CO)C(O)C2(F)F)c(=O)n1 (stereo not given) + CNC(=O)c1ccc(Nc2nc(OC3CCCC3)c3c(-c4ccc5nc(C)oc5c4)c[nH]c3n2)c(OC)c1", "answer_label": "no"}
{"compound": "C=CC(=O)N1CCN(c2nc(=O)n(-c3c(C)ccnc3C(C)C)c3nc(-c4c(O)cccc4F)c(F)cc23)C(C)C1 (stereo not given) + CN1CCN(c2cc(C(=O)Nc3cc4cc(-c5cnn(C)c5)ccc4cn3)ccn2)CC1", "answer_label": "yes"}
{"compound": "CCCS(=O)(=O)Nc1ccc(F)c(C(=O)c2c[nH]c3ncc(-c4ccc(Cl)cc4)cc23)c1F + CNC(=O)c1ccc(Nc2nc(OC3CCCC3)c3c(-c4ccc5nc(C)oc5c4)c[nH]c3n2)c(OC)c1", "answer_label": "no"}

* * *

# System: 323965-272-R-J2-PDC complex spheroid viability
# experimental_protocol: Anticancer human tumor 323965-272-R-J2-PDC cell line growth inhibition [CLK]; active means viability on the fitted dose curve at most 10% of control; inactive means the rest;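 also: spheroids exposed to agents for seven days before readout; percent of DMSO vehicle control wells so 100% = untreated growth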
# condition_description: second compound 3.16 µM; first compound 0.1 µM
Outcomes: 1.0 (active), 0.0 (inactive)

{"compound": "CCCS(=O)(=O)Nc1ccc(F)c(C(=O)c2c[nH]c3ncc(-c4ccc(Cl)cc4)cc23)c1F + CN1CCN(c2cc(C(=O)Nc3cc4cc(-c5cnn(C)c5)ccc4cn3)ccn2)CC1", "answer_label": 1.0}
{"compound": "CCCS(=O)(=O)Nc1ccc(F)c(C(=O)c2c[nH]c3ncc(-c4ccc(Cl)cc4)cc23)c1F + CNC(=O)c1ccc(Nc2nc(OC3CCCC3)c3c(-c4ccc5nc(C)oc5c4)c[nH]c3n2)c(OC)c1", "answer_label": 0.0}
{"compound": "CC(=O)O[C@H]1C(=O)[C@@]2(C)[C@H]([C@H](OC(=O)c3ccccc3)[C@]3(O)C[C@H](OC(=O)[C@H](O)[C@@H](NC(=O)c4ccccc4)c4ccccc4)C(C)=C1C3(C)C)[C@]1(OC(C)=O)CO[C@@H]1C[C@@H]2O + CN1CCN(c2cc(C(=O)Nc3cc4cc(-c5cnn(C)c5)ccc4cn3)ccn2)CC1", "answer_label": 1.0}
{"compound": "COC1C=CCC(C)C(C)S(=O)(=O)NC(=O)c2ccc3c(c2)N(CC2CCC21)CC1(CCCc2cc(Cl)ccc21)CO3 (centres undefined) + CNC(=O)c1ccc(Nc2nc(OC3CCCC3)c3c(-c4ccc5nc(C)oc5c4)c[nH]c3n2)c(OC)c1", "answer_label": 0.0}
{"compound": "Cn1ncnc1[C@H]1c2n[nH]c(=O)c3cc(F)cc(c23)N[C@@H]1c1ccc(F)cc1 + CNC(=O)c1ccc(Nc2nc(OC3CCCC3)c3c(-c4ccc5nc(C)oc5c4)c[nH]c3n2)c(OC)c1", "answer_label": 0.0}
{"compound": "CC(Nc1ccc2c(c1)OCCn1cc(N3C(=O)OCC3C(F)F)nc1-2)C(N)=O (centres undefined) + CN1CCN(c2cc(C(=O)Nc3cc4cc(-c5cnn(C)c5)ccc4cn3)ccn2)CC1", "answer_label": 1.0}
{"compound": "CC(=O)O[C@H]1C(=O)[C@@]2(C)[C@H]([C@H](OC(=O)c3ccccc3)[C@]3(O)C[C@H](OC(=O)[C@H](O)[C@@H](NC(=O)c4ccccc4)c4ccccc4)C(C)=C1C3(C)C)[C@]1(OC(C)=O)CO[C@@H]1C[C@@H]2O + CNC(=O)c1ccc(Nc2nc(OC3CCCC3)c3c(-c4ccc5nc(C)oc5c4)c[nH]c3n2)c(OC)c1", "answer_label": 0.0}
{"compound": "O=C(c1cc(Cc2n[nH]c(=O)c3ccccc23)ccc1F)N1CCN(C(=O)C2CC2)CC1 + CN1CCN(c2cc(C(=O)Nc3cc4cc(-c5cnn(C)c5)ccc4cn3)ccn2)CC1", "answer_label": 1.0}
{"compound": "Cn1ncnc1[C@H]1c2n[nH]c(=O)c3cc(F)cc(c23)N[C@@H]1c1ccc(F)cc1 + CN1CCN(c2cc(C(=O)Nc3cc4cc(-c5cnn(C)c5)ccc4cn3)ccn2)CC1", "answer_label": 1.0}
